- EXPERIMENTAL_SYSTEM: OX1 (Homo sapiens, UniProt O43613)
- Sequence (O43613 1-425): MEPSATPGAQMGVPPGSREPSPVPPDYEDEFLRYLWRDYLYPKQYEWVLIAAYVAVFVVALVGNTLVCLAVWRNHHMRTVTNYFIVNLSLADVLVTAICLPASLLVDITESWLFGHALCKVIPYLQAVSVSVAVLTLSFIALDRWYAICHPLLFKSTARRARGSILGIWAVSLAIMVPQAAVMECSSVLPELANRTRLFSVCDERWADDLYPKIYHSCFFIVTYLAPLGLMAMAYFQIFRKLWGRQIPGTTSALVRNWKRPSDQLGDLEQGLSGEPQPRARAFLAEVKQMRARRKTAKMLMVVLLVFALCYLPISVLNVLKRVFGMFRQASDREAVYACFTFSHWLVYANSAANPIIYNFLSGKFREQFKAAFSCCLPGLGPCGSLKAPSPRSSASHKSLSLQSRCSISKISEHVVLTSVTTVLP
- EXPERIMENTAL_DETAILS: Measurement of orexin receptor-binding ability ([125I]-OX-A, cell membranes, OX1)
- Design: expressed in transfected cells; host or cells: CHO cells (membrane preparation)
Consider the following molecules and their measured pIC50 readings.
Please express pIC50 as -log10 of the molar concentration.

Observe how each entry below is paired with its result.
[[record]]
molecule = "Cc1ncc(OC[C@@]2(c3ccc(F)c(F)c3)C[C@H]2C(=O)Nc2ccc(C#N)cn2)c(C)n1"
recorded_measurement = 7.42

[[record]]
molecule = "Cc1ncc(OCC2(c3ccccc3Cl)CC2C(=O)Nc2ccc(Cl)cn2)c(C)n1 (centres unmarked)"
recorded_measurement = 7.24

[[record]]
molecule = "Cc1ncc(OC[C@@]2(c3cc(F)ccc3O)C[C@H]2C(=O)Nc2ccc(F)cn2)c(C)n1"
recorded_measurement = 6.95

[[record]]
molecule = "COc1ccccc1C1(COc2cnc(C)nc2C)CC1C(=O)Nc1ccc(F)cn1 (centres unmarked)"
recorded_measurement = 5.98

[[record]]
molecule = "COc1ccc([C@]2(COc3cnc(C)nc3C)C[C@H]2C(=O)Nc2ccc(F)cn2)cc1F"
recorded_measurement = 7.52

[[record]]
molecule = "Cc1ncc(OC[C@@]2(c3ccc(F)cc3)C[C@H]2C(=O)Nc2ccccn2)c(C)n1"
recorded_measurement = 6.47

[[record]]
molecule = "COc1cncc(NC(=O)[C@@H]2C[C@@]2(COc2cnc(C)nc2C)c2cccc(F)c2)c1"
recorded_measurement = 6.79


Would you kindly look at the next entry?
Tell me measured pIC50 for `Cc1ncc(OC[C@@]2(c3cccc(F)c3)C[C@H]2C(=O)Nc2cc(C)c(F)cn2)c(C)n1` please.
8.62

* * *

Consider the following molecules and their measured IC50 readings.
- EXPERIMENTAL_SYSTEM: OX2 (Homo sapiens, UniProt O43614)
- Sequence (O43614 whole entry): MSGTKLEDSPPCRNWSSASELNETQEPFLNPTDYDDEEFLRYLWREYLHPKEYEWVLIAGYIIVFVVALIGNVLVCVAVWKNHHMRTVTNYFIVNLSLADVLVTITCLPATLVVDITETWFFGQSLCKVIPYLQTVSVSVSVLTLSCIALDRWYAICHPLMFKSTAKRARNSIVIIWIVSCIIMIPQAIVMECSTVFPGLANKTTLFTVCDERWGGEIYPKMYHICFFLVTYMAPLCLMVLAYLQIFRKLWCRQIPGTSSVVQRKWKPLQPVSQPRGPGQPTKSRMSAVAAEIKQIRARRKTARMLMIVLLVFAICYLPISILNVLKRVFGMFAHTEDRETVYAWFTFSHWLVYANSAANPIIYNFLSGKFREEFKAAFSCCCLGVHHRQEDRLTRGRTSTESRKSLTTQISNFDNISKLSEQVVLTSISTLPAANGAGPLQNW
- EXPERIMENTAL_DETAILS: Measurement of orexin receptor-binding ability ([125I]-OX-A, cell membranes, OX2)
- Set-up: expressed in transfected cells; host or cells: CHO cells (membrane preparation)
- PARTICULARS: OX2 (IC50) nM, membranes of recombinant CHO cells expressing OX2, 0.2 nM [125I]-OX-A
A number alone suffices; assume nM.

[[record]]
structure_smiles = "Cc1ncc(OC[C@@]2(c3cc(F)ccc3O)C[C@H]2C(=O)Nc2ccc(F)cn2)c(C)n1"
recorded_measurement = 5.9

[[record]]
structure_smiles = "Cc1ncc(OC[C@@]2(c3cccc(F)c3)C[C@H]2C(=O)Nc2ccc(CF)cn2)c(C)n1"
recorded_measurement = 2.4

[[record]]
structure_smiles = "COCc1nc(C)ncc1OC[C@@]1(c2cccc(F)c2)C[C@H]1C(=O)Nc1ccccn1"
recorded_measurement = 8

[[record]]
structure_smiles = "Cc1ncc(OC[C@@]2(c3cccc(F)c3)C[C@H]2C(=O)Nc2ccc(F)c(O)n2)c(C)n1"
recorded_measurement = 20


Tell me measured IC50 for `Cc1ncc(OC[C@@]2(c3ccccc3)C[C@H]2C(=O)Nc2cccc(F)n2)c(C)n1` please.
56
